target: Carbonic anhydrase 2 (Homo sapiens) (UniProt P00918); assay: compounds binding carbonic anhydrase 2 – biochemical, small-molecule microarray, Alexa647-labelled CAII, profiling panel (AID 1122); details: CAII-A647 binding fluorescence, higher = more signal
Think of 0.2 as a floor: if composite z-score stands on it or above, it is Satisfied; beneath it, Not satisfied.

These recorded examples may help you get a feel for the data.
>>> category_label("CCCCC=C[C@@H](NC(=O)CCc1ccccc1)c1ccccc1")
"Satisfied"
>>> category_label("COC(=O)[C@@]1(Cc2ccc(F)cc2)[C@H]2c3cc(C(=O)N(C)C)n(Cc4ccc(C)c(F)c4F)c3C[C@H]2CN1C(=O)c1ccccc1")
"Satisfied"
>>> category_label("COC(=O)[C@@]1(Cc2ccc(OC)cc2)[C@H]2c3cc(C(=O)N4CCCC4)n(CCc4ccc(O)c(OC)c4)c3C[C@H]2CN1C(=O)c1ccccc1")
"Satisfied"
>>> category_label("COCCOC(=O)N1C(=O)[C@@]2(c3cc(C#CCCO)ccc31)[C@H](c1ccc(OCCO)cc1)N1[C@H](c3ccccc3)[C@H](c3ccccc3)OC(=O)[C@H]1[C@@H]2C(=O)N1CCc2cc(OC)c(OC)cc2C1")
"Satisfied"

Problem: Does `COc1ccc([Si](C)(C)[C@@H]2[C@@H](CCO)O[C@]3(C(=O)N(Cc4ccccc4)c4ccc(N5CCCCC5=O)cc43)[C@H]2C)cc1` have a reported composite z-score of at least 0.2?
Solution: Not satisfied

====

I'd appreciate it if you could supply composite z-score values for the items below.
test system: Chordin-like protein 2 (CHRDL2); test: compounds binding chordin-like 2 – biochemical, small-molecule microarray, 635 nm fluorescence, primary screen (AID 1126); details: fluorescence 635 nm, higher = more signal;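 note: printed compound slides probed with Chrdl2 protein at 4 µg/mL for 1 h at 4 C; score merges 667 nm emission intensity with signal to noise over three replicate slides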

>>> observed_measurement("[N-]=[N+]=NCc1ccccc1[C@H]1OC(c2ccc(OCCCO)cc2)=N[C@@]1(Cc1ccccc1N=[N+]=[N-])C(=O)N1CCCCC1")
0.0975
>>> observed_measurement("CC(C)c1ccc(NN2C(C(O)c3ccccn3)C=CC3C(=O)N(c4ccccc4)C(=O)C32)cc1 (centres undefined)")
-0.159
>>> observed_measurement("COCCOC(=O)N1C(=O)[C@@]2(c3cc(C#CC4(O)CCCCCC4)ccc31)[C@H](C(=O)N1CCc3cc(OC)c(OC)cc3C1)[C@H]1C(=O)O[C@H](c3ccccc3)[C@H](c3ccccc3)N1[C@@H]2c1ccccc1OCCO")
1.02

In plain terms, `O=C1O[C@@H](c2ccccc2)[C@@H](c2ccccc2)N2[C@@H](c3ccc(O)cc3)[C@]3(C(=O)Nc4ccc(C#CC5(O)CCCCCC5)cc43)[C@@H](C(=O)N3CCN(c4ncccn4)CC3)[C@H]12` has a documented composite z-score of -0.106

====

tested on: Human papillomavirus type 1a protein E7 (residues 44-93); experiment: small molecules binding HPV E7 44-93 – biochemical, small-molecule microarray, residues 44-93, 635 nm fluorescence, primary screen (AID 1108); conditions: fluorescence 635 nm, higher = more signal;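 note: E7 fragment applied at 1 µg/mL in TBST for 1 h at 4 C; score combines spot fluorescence with its signal to noise ratio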
Heads up, the class ranges for composite z-score are lower band = under 0.5, central band = from 0.5 up to 1, upper band = 1 and over

These recorded examples may help you get a feel for the data.
>>> category_label("COc1ccc([Si](C)(C)[C@H]2[C@H](CCn3cc(CCO)nn3)O[C@@]3(C(=O)N(Cc4cccc(N5C(=O)c6cccc7cccc5c67)c4)c4ccccc43)[C@@H]2C)cc1")
"upper band"
>>> category_label("COCCCNC(=O)[C@]1(Cc2ccccc2CN=[N+]=[N-])N=C(c2ccc(OCCCO)cc2)O[C@@H]1c1ccccc1CN=[N+]=[N-]")
"lower band"
>>> category_label("C=C(COC)C(=O)CC[C@H](OC(=O)c1ccccc1-c1ccccc1C(=O)O)c1ccc(CO)o1")
"central band"
>>> category_label("O=C(O)[C@@]1(Cc2ccccc2)COC(c2ccc(OCCCO)cc2)=N1")
"lower band"
>>> category_label("C=CCC(OC(C)=O)[C@@H]1[C@@H](N(Cc2cccc3ccccc23)C(=O)c2ccc(C)cc2)c2cc(OCCCO)ccc2N1C(=O)c1ccc2ccccc2c1 (stereo partly specified)")
"lower band"

Problem: Assign a bin to C=C(C)[C@@H]1CC=C(C(O)C2C=CC3C(=O)N(C4CCCCC4)C(=O)C3N2Nc2ccc(OC)cc2)CC1 (stereo partly specified)
Solution: upper band

Problem: Assign a bin to `CCOC(=O)C1=CC[C@@H](c2ccccc2)N(S(=O)(=O)c2ccc(C)cc2)[C@H]1C=C(C)C`
Solution: upper band

Problem: Assign a bin to `CCCC[C@@H](O)C1=C(COc2ccccc2)Cn2c(=O)n(-c3ccccc3)c(=O)n2[C@H]1CO`
Solution: lower band

Problem: Assign a bin to `C=CC[C@]1(C(=O)N(C)C)N=C(c2ccc(OCCCO)cc2)O[C@H]1c1ccccc1`
Solution: upper band

Problem: Assign a bin to `COC(=O)[C@@]1(Cc2ccccc2N=[N+]=[N-])N=C(c2ccc(OCCCO)cc2)O[C@H]1c1ccccc1`
Solution: upper band

Problem: Assign a bin to `COCCOC(=O)N1C(=O)[C@@]2(c3cc(C#CCNC(N)=O)ccc31)[C@H](C(=O)N1CCCCCCC1)[C@H]1C(=O)O[C@H](c3ccccc3)[C@H](c3ccccc3)N1[C@@H]2c1ccc(OCCO)cc1`
Solution: central band
